systemUnderTest: C-C chemokine receptor type 5 (Homo sapiens, UniProt P51681)
Sequence (P51681 whole entry): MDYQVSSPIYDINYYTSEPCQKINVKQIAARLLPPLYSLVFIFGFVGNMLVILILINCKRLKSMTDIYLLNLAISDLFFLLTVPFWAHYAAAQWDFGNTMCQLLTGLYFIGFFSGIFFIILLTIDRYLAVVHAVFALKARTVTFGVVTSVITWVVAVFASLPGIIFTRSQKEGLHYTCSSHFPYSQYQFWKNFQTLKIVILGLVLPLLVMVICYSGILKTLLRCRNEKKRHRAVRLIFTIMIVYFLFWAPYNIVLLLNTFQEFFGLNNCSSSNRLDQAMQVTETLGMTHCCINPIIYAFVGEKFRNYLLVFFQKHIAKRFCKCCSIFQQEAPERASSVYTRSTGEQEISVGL
experiment: Antagonist activity at CCR5 (unknown origin) expressed in MOLT4 cells transfected with Gqi5 assessed as inhibition of RANTES-induced calcium ion mobilization after 15 mins by microplate reader method
I'd appreciate it if you could label each record using IC50 and these ranges: lower = under 60 µM, middle = from 60 µM up to 70 µM, upper = 70 µM and over

Observe how each entry below is paired with its result.
CCOc1ccc(C2CCN(Cc3ccc(N(CC)CC)cc3)CC2)cc1NC(=O)c1cnccn1 lower
CC(C)Oc1ccc(C2CCN(Cc3ccc([N+](=O)[O-])cc3)CC2)cc1NC(=O)c1ccccc1 lower
CC(C)Oc1ccc(C2CCN(Cc3ccc([N+](=O)[O-])cc3)CC2)cc1NC(=O)c1cnccn1 middle
CCOc1ccc(C2CCN(Cc3ccc(N)cc3)CC2)cc1NC(=O)c1ccccc1 middle
CC(C)Oc1ccc(C2CCN(Cc3ccc(N)cc3)CC2)cc1NC(=O)c1cnccn1 upper

# bin label for COc1ccc(C2CCN(Cc3ccc(N)cc3)CC2)cc1NC(=O)c1ccccc1
upper

# bin label for CCOc1ccc(C2CCN(Cc3ccc([N+](=O)[O-])cc3)CC2)cc1NC(=O)c1ccccc1
lower

# bin label for COc1ccc(C2CCN(Cc3ccc(N)cc3)CC2)cc1NC(=O)c1cnccn1
lower

# bin label for CC(C)Oc1ccc(C2CCN(Cc3ccc(N)cc3)CC2)cc1NC(=O)c1ccccc1
middle

# bin label for CCOc1ccc(C2CCN(Cc3ccc(NC(C)=O)cc3)CC2)cc1NC(=O)c1ccccc1
upper

# bin label for CCOc1ccc(C2CCN(Cc3ccc(N(CC)CC)cc3)CC2)cc1NC(=O)c1ccccc1
middle

# bin label for CCN(CC)c1ccc(CN2CCC(c3ccc(OC(C)C)c(NC(=O)c4ccccc4)c3)CC2)cc1
upper
